Tested on: SN12C renal
Assay: NCI-60 one-dose screen, 48 h (100 = growth as untreated, 0 = no growth, -100 = all killed)
Details: 10 µM unless noted
The panel holds about 83,000 compounds, 20% with a hit somewhere; the sample as a whole holds those more often. The source made the active and inactive calls. The calls were made as follows: active = growth percent below 10; inactive = the rest.
metric: growth

Q. growth lookup needed for `COc1cc(/C=C\c2cc(OC)c(OC)c(OC)c2)cc(N)c1OC` , thanks.
A. 93.4% (inactive)

Q. // query: `O=C1/C=C/[C@@H](O)[C@@H]2C[C@@H](O)C[C@H]2/C=C/CCC[C@H](CCc2cccc3ccccc23)O1`
A. 5.88% (active)

Q. // same read-out, input: CCN1C(=O)N(CC)C2Nn3c(s/c(=C\c4ccc(OC)cc4)c3=O)=NC21 (stereo not given)
A. 62.6% (inactive)

Q. How about `C#Cc1cccc(NC(=O)c2cccc(NC(=O)CCl)c2)c1` ?
A. -65.9% [8.25 µM] (active)

Q. Now consider `COc1ccc(/C=C/C(=O)Nc2cc(/C=C\c3cc(OC)c(OC)c(OC)c3)cc(OC)c2OC)cc1OC` .
A. 33% (inactive)
